Test: self-splicing fitness, log relative to wild type (ln ratio); higher = more splicing; Tetrahymena group I intron in knt gene, E. coli kanamycin selection, DiMSum; sequences stand for … in CUCUCU…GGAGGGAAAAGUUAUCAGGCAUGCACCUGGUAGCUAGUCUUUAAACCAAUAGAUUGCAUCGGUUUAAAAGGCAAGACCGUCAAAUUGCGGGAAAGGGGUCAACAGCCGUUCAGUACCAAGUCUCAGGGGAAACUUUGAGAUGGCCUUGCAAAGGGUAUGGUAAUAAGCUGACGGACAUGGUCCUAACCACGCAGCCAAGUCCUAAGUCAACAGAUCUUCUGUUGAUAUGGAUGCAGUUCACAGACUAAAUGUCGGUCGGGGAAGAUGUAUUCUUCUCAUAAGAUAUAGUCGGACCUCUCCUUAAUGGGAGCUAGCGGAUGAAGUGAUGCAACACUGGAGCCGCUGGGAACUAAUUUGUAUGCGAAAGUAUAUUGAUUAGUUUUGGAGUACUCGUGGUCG;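 also: selection with 25 µg/mL kanamycin versus none on LB agar overnight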
Details: 37 °C
Measured self-splicing fitness (ln) by item
REPORTED ENDPOINT: self-splicing fitness (ln)

macromolecule_sequence=GAGAAGCAAUAUUACGCCGA readout_value=-0.228
macromolecule_sequence=ACUCAGCAAUAUUACGCGCG readout_value=-0.47
macromolecule_sequence=AUAAAGCAAUAUUACGCGGC readout_value=-0.109
macromolecule_sequence=UUUCAGCAAUAUUACGGGGG readout_value=-1.45
macromolecule_sequence=GUGCAGCAAUAUUACGAGGU readout_value=-2.47
macromolecule_sequence=UAUGAGCAAUAUUACGGUGA readout_value=-3.36
macromolecule_sequence=UGGAAGCAAUAUUACGCGUG readout_value=-0.135

---

Assay: self-splicing fitness, log relative to wild type (ln ratio); higher = more splicing; Tetrahymena group I intron in knt gene, E. coli kanamycin selection, DiMSum; sequences stand for … in CUCUCU…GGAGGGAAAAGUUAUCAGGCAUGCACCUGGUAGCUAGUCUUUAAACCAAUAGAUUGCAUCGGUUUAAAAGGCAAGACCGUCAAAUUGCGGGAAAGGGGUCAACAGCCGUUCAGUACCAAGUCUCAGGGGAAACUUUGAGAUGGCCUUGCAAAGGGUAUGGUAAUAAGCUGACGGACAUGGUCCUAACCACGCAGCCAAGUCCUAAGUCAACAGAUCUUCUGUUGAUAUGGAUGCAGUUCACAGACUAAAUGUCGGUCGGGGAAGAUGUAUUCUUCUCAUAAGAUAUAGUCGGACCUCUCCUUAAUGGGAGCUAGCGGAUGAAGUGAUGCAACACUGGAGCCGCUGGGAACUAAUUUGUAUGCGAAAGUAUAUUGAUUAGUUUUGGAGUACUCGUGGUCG
Conditions: 30 °C
Property: self-splicing fitness (ln); scope: individual sequences
REPORTED ENDPOINT: self-splicing fitness (ln)

macromolecule_sequence=AACAAGCAAUAUUACGAAAU reported_endpoint="self-splicing fitness (ln)" readout_value=-3.53
macromolecule_sequence=AUCCAGCAAUAUUACGGACU reported_endpoint="self-splicing fitness (ln)" readout_value=-0.507
macromolecule_sequence=ACAGAGCAAUAUUACGAACA reported_endpoint="self-splicing fitness (ln)" readout_value=-2.01
macromolecule_sequence=CAUUAGCAAUAUUACGGACG reported_endpoint="self-splicing fitness (ln)" readout_value=-0.114
macromolecule_sequence=CCACAGCAAUAUUACGGAGA reported_endpoint="self-splicing fitness (ln)" readout_value=-3.01
macromolecule_sequence=UAUAAGCAAUAUUACGCGCG reported_endpoint="self-splicing fitness (ln)" readout_value=-0.131
macromolecule_sequence=UCACAGCAAUAUUACGGGCA reported_endpoint="self-splicing fitness (ln)" readout_value=-0.496
macromolecule_sequence=CCACAGCAAUAUUACGGUAC reported_endpoint="self-splicing fitness (ln)" readout_value=-4.19
macromolecule_sequence=CCGAAGCAAUAUUACGAUAG reported_endpoint="self-splicing fitness (ln)" readout_value=-0.89
macromolecule_sequence=UCGAAGCAAUAUUACGGCAA reported_endpoint="self-splicing fitness (ln)" readout_value=-1.81

---

Assay: self-splicing fitness, log relative to wild type (ln ratio); higher = more splicing; Tetrahymena group I intron in knt gene, E. coli kanamycin selection, DiMSum; sequences stand for … in CUCUCU…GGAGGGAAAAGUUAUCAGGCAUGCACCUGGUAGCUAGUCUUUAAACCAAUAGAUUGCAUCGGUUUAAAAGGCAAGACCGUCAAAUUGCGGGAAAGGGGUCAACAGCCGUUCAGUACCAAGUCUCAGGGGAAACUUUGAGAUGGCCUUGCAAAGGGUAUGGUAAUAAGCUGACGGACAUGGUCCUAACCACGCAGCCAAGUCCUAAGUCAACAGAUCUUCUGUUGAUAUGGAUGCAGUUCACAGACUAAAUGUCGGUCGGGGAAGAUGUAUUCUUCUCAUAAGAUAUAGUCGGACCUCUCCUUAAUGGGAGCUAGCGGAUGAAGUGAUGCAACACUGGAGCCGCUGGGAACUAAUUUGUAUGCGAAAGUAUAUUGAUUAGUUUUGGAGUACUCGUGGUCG
Settings: 30 °C
self-splicing fitness (ln) for assorted sequences
REPORTED ENDPOINT: self-splicing fitness (ln)

macromolecule_sequence=AAAAAGCAAUAUUACGUAAC reported_endpoint="self-splicing fitness (ln)" readout_value=-2.45
macromolecule_sequence=GGAUAGCAAUAUUACGCCUA reported_endpoint="self-splicing fitness (ln)" readout_value=-1.45
macromolecule_sequence=GGAGAGCAAUAUUACGGUCG reported_endpoint="self-splicing fitness (ln)" readout_value=-1.18
macromolecule_sequence=UACUAGCAAUAUUACGCAAG reported_endpoint="self-splicing fitness (ln)" readout_value=-2.98
macromolecule_sequence=AAGUAGCAAUAUUACGUGAC reported_endpoint="self-splicing fitness (ln)" readout_value=-2.41
macromolecule_sequence=UCCGAGCAAUAUUACGCGGA reported_endpoint="self-splicing fitness (ln)" readout_value=-2.27
macromolecule_sequence=AAAUAGCAAUAUUACGUCGU reported_endpoint="self-splicing fitness (ln)" readout_value=-2.69
macromolecule_sequence=AGGGAGCAAUAUUACGCCUA reported_endpoint="self-splicing fitness (ln)" readout_value=-1.43
macromolecule_sequence=AAGUAGCAAUAUUACGGACU reported_endpoint="self-splicing fitness (ln)" readout_value=-0.577
macromolecule_sequence=AGCUAGCAAUAUUACGGGCU reported_endpoint="self-splicing fitness (ln)" readout_value=-3.47
macromolecule_sequence=UCCUAGCAAUAUUACGAUGG reported_endpoint="self-splicing fitness (ln)" readout_value=-3.64
macromolecule_sequence=CGCUAGCAAUAUUACGACCG reported_endpoint="self-splicing fitness (ln)" readout_value=-1.12
macromolecule_sequence=GUAAAGCAAUAUUACGAAUC reported_endpoint="self-splicing fitness (ln)" readout_value=-1.71
macromolecule_sequence=UUAAAGCAAUAUUACGACGU reported_endpoint="self-splicing fitness (ln)" readout_value=-0.129
macromolecule_sequence=AUAGAGCAAUAUUACGGUAC reported_endpoint="self-splicing fitness (ln)" readout_value=-3.74
macromolecule_sequence=AGCAAGCAAUAUUACGCGUU reported_endpoint="self-splicing fitness (ln)" readout_value=-2.89
macromolecule_sequence=GUCCAGCAAUAUUACGCUAA reported_endpoint="self-splicing fitness (ln)" readout_value=-0.5
macromolecule_sequence=GUAAAGCAAUAUUACGUUGG reported_endpoint="self-splicing fitness (ln)" readout_value=-1.84
macromolecule_sequence=UUUUAGCAAUAUUACGGCUA reported_endpoint="self-splicing fitness (ln)" readout_value=-2.21
macromolecule_sequence=UAAAAGCAAUAUUACGACCU reported_endpoint="self-splicing fitness (ln)" readout_value=-0.4
macromolecule_sequence=UACUAGCAAUAUUACGUGGG reported_endpoint="self-splicing fitness (ln)" readout_value=-3.32
macromolecule_sequence=GAUUAGCAAUAUUACGCUGC reported_endpoint="self-splicing fitness (ln)" readout_value=-3.07
macromolecule_sequence=GAUAAGCAAUAUUACGACCG reported_endpoint="self-splicing fitness (ln)" readout_value=-1.01
macromolecule_sequence=GCUGAGCAAUAUUACGCGAC reported_endpoint="self-splicing fitness (ln)" readout_value=-3.36
macromolecule_sequence=AUCGAGCAAUAUUACGACAG reported_endpoint="self-splicing fitness (ln)" readout_value=-2.51
macromolecule_sequence=CUUGAGCAAUAUUACGACUU reported_endpoint="self-splicing fitness (ln)" readout_value=-2.53
macromolecule_sequence=AAUAAGCAAUAUUACGCCGA reported_endpoint="self-splicing fitness (ln)" readout_value=-0.856
macromolecule_sequence=CGCCAGCAAUAUUACGGUCU reported_endpoint="self-splicing fitness (ln)" readout_value=-0.989
macromolecule_sequence=GAGAAGCAAUAUUACGUAUG reported_endpoint="self-splicing fitness (ln)" readout_value=-2.37
macromolecule_sequence=CUACAGCAAUAUUACGCUGU reported_endpoint="self-splicing fitness (ln)" readout_value=-3.9
macromolecule_sequence=CAUUAGCAAUAUUACGUAUU reported_endpoint="self-splicing fitness (ln)" readout_value=-4.04
macromolecule_sequence=CUACAGCAAUAUUACGAGUU reported_endpoint="self-splicing fitness (ln)" readout_value=-4.98
macromolecule_sequence=UACCAGCAAUAUUACGUAGA reported_endpoint="self-splicing fitness (ln)" readout_value=-1.27
macromolecule_sequence=CAGCAGCAAUAUUACGGUAA reported_endpoint="self-splicing fitness (ln)" readout_value=-1.97
macromolecule_sequence=CAGCAGCAAUAUUACGGACU reported_endpoint="self-splicing fitness (ln)" readout_value=-2.43
macromolecule_sequence=ACUAAGCAAUAUUACGUACU reported_endpoint="self-splicing fitness (ln)" readout_value=0.135
macromolecule_sequence=AUGAAGCAAUAUUACGCGGC reported_endpoint="self-splicing fitness (ln)" readout_value=-2.46
macromolecule_sequence=CGACAGCAAUAUUACGGGCA reported_endpoint="self-splicing fitness (ln)" readout_value=-1.24
macromolecule_sequence=AAGUAGCAAUAUUACGAGUU reported_endpoint="self-splicing fitness (ln)" readout_value=-1.86
macromolecule_sequence=CAGCAGCAAUAUUACGUAUU reported_endpoint="self-splicing fitness (ln)" readout_value=-3.51
macromolecule_sequence=ACUAAGCAAUAUUACGUUUG reported_endpoint="self-splicing fitness (ln)" readout_value=-3.62
macromolecule_sequence=AUCUAGCAAUAUUACGGUGG reported_endpoint="self-splicing fitness (ln)" readout_value=-4.43
macromolecule_sequence=UUAGAGCAAUAUUACGUCCU reported_endpoint="self-splicing fitness (ln)" readout_value=-1.36
macromolecule_sequence=CUAGAGCAAUAUUACGCUUG reported_endpoint="self-splicing fitness (ln)" readout_value=-3.03
macromolecule_sequence=UAAAAGCAAUAUUACGCUAG reported_endpoint="self-splicing fitness (ln)" readout_value=-1.09
macromolecule_sequence=GUACAGCAAUAUUACGUUCC reported_endpoint="self-splicing fitness (ln)" readout_value=-3.44
macromolecule_sequence=GGGCAGCAAUAUUACGCUGG reported_endpoint="self-splicing fitness (ln)" readout_value=-3.14
macromolecule_sequence=UGAAAGCAAUAUUACGCCUG reported_endpoint="self-splicing fitness (ln)" readout_value=-0.546
macromolecule_sequence=AACAAGCAAUAUUACGUCCG reported_endpoint="self-splicing fitness (ln)" readout_value=-1.26
macromolecule_sequence=GAAGAGCAAUAUUACGAACC reported_endpoint="self-splicing fitness (ln)" readout_value=-1.82
macromolecule_sequence=CCUGAGCAAUAUUACGGCUC reported_endpoint="self-splicing fitness (ln)" readout_value=-3.81
macromolecule_sequence=UCAGAGCAAUAUUACGGUUG reported_endpoint="self-splicing fitness (ln)" readout_value=-3.9
macromolecule_sequence=AAUUAGCAAUAUUACGUAGC reported_endpoint="self-splicing fitness (ln)" readout_value=-3.24
macromolecule_sequence=ACUCAGCAAUAUUACGCGAA reported_endpoint="self-splicing fitness (ln)" readout_value=-1.48
macromolecule_sequence=GGAAAGCAAUAUUACGAGCA reported_endpoint="self-splicing fitness (ln)" readout_value=-1.01
macromolecule_sequence=GCAUAGCAAUAUUACGAGUC reported_endpoint="self-splicing fitness (ln)" readout_value=-2.44
macromolecule_sequence=UGUCAGCAAUAUUACGGAGG reported_endpoint="self-splicing fitness (ln)" readout_value=-1.68
macromolecule_sequence=UGUGAGCAAUAUUACGUCCU reported_endpoint="self-splicing fitness (ln)" readout_value=-0.548
macromolecule_sequence=UAUUAGCAAUAUUACGGGUC reported_endpoint="self-splicing fitness (ln)" readout_value=-2.14
macromolecule_sequence=CGCCAGCAAUAUUACGCGAU reported_endpoint="self-splicing fitness (ln)" readout_value=-3.87
macromolecule_sequence=AUCGAGCAAUAUUACGGCCG reported_endpoint="self-splicing fitness (ln)" readout_value=-1.92
macromolecule_sequence=CCUCAGCAAUAUUACGGUCG reported_endpoint="self-splicing fitness (ln)" readout_value=-0.693
macromolecule_sequence=AGGAAGCAAUAUUACGUGAC reported_endpoint="self-splicing fitness (ln)" readout_value=-3.65
macromolecule_sequence=AGCAAGCAAUAUUACGUACA reported_endpoint="self-splicing fitness (ln)" readout_value=-1.22
